Each entry below carries its reported EC50.
- Experimental System: cynomolgus LIV-1 (cynomolgus, UniProt A0A2K5WH46 30-741)
- Sequence (A0A2K5WH46 entry or part of it): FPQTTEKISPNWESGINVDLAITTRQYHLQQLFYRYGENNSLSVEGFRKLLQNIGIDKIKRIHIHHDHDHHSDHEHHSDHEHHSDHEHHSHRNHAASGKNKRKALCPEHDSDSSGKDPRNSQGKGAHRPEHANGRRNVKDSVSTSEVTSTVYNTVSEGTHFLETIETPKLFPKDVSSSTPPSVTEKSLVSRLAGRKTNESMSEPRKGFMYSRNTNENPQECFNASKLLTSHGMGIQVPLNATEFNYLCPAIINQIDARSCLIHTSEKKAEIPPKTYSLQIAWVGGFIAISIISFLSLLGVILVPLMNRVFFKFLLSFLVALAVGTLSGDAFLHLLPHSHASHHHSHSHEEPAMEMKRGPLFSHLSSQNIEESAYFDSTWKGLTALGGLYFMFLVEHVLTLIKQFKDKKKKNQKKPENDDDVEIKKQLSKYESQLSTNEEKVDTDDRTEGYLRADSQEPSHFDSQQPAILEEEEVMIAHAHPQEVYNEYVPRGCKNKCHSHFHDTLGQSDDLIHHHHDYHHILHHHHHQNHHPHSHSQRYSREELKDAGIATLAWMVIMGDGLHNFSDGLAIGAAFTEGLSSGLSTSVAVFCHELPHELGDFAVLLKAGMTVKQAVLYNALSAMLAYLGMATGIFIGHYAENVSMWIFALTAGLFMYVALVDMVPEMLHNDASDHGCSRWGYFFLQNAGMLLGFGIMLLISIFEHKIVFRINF
- Test Description: FACS, cyno LIV-1 cells
Just the number in nM, nothing appended.

Here is how some binders turned out for EC50.
| Binder | EC50 [nM] |
| --- | --- |
| 290F10G10.p1.Z5 (antibody, V domains shown) VH: EVQLVQSGAEVKKPGASVKVSCKASGYTFTSYWIHWVRQAPGQGLEWMGTIYPGDADTRSTQKFKDRVTVTADKSTSTVYMELSSLRSEDTAVYYCARSLIHDDYDKYYFDYWGQGTTVTVSS VL: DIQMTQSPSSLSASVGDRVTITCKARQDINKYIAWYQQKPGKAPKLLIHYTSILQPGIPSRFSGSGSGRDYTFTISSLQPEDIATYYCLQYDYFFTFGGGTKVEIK | 0.5 |
| 290F10G10.p1.Z15 (antibody, V domains shown) VH: EVQLVQSGAEVKKPGASVKVSCKASGYTFTSYWIHWVRQAPGQGLEWIGTIYPGDADTRSTQKFKDKATVTADKSTSTVYMELSSLRSEDTAVYYCTRSLIHDDYDKYYFDYWGQGTTVTVSS VL: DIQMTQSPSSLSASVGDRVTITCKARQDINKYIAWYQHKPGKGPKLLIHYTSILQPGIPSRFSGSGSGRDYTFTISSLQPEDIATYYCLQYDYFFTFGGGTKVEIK | 0.36 |

Task item: Suppose we examine the binder 290F10G10.p1.Z1 (antibody, V domains shown) VH: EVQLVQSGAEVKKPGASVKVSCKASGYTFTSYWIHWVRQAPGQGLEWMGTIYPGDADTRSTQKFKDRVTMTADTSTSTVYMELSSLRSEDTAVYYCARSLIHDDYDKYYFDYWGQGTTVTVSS VL: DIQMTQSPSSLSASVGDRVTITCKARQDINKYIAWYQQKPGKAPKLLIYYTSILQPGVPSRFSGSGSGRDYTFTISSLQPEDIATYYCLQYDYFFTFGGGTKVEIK ; what EC50 value has been reported?
Reply: 0.85

Task item: Suppose we examine the binder 290F10G10.p1.Z14 (antibody, V domains shown) VH: EVQLVQSGAEVKKPGASVKVSCKASGYTFTSYWIHWVRQAPGQGLEWIGTIYPGDADTRSTQKFKDKATVTADKSTSTVYMELSSLRSEDTAVYYCTRSLIHDDYDKYYFDYWGQGTTVTVSS VL: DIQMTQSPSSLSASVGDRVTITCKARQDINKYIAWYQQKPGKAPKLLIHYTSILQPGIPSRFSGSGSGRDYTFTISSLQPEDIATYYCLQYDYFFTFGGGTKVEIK ; what EC50 value has been reported?
Reply: 0.48

Task item: Suppose we examine the binder 290F10G10.p1.Z12 (antibody, V domains shown) VH: EVQLVQSGAEVKKPGASVKVSCKASGYTFTSYWIHWVRQAPGQGLEWMGTIYPGDADTRSTQKFKDRVTVTADKSTSTVYMELSSLRSEDTAVYYCTRSLIHDDYDKYYFDYWGQGTTVTVSS VL: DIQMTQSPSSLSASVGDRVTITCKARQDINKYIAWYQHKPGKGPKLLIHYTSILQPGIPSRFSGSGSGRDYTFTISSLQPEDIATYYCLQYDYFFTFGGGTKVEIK ; what EC50 value has been reported?
Reply: 0.38
